src = the OligoGym collection

Quick reference: target mRNA inhibition of the listed items.
SYSTEM UNDER TEST: APOL1
CONDITION SUMMARY: ASO, A431, 0.25 µM
After the bases stand the sugars from the 5' end (letter, count) and the backbone: PS all phosphorothioate, else s phosphorothioate and o phosphodiester by linkage. Methylation of C is not given here. e = 2'-O-(2-methoxyethyl) (MOE); k = constrained ethyl (cEt); d = 2'-deoxy (DNA)

>  <SEQ STRING>
AAGGTTGTCCAGAGCT (sugars k4 d9 k3, PS)

>  <UNIT TEXT>
%

>  <target mRNA inhibition>
27

$$$$
>  <SEQ STRING>
GTAGAATGAGCAGGTC (sugars k4 d9 k3, PS)

>  <UNIT TEXT>
%

>  <target mRNA inhibition>
97

$$$$
>  <SEQ STRING>
TATTTCTTGATGTGGT (sugars kkddddkekekddddd, PS)

>  <UNIT TEXT>
%

>  <target mRNA inhibition>
92

$$$$
